Origin of measurements: patent US7557098B2

MEASURED PARAMETER: melting point

Use the examples below as a reference point.
>>> print(df.to_string())
                           smiles_structure  measured_parameter  observed_measurement
0  O=C(CN1CCN(c2cccc3c2cnn3S(=O)(=O)c2ccccc2)CC1)c1ccccc1       melting point         202 to 205 °C
1  O=S(=O)(c1ccc(F)cc1)n1ncc2c(N3CCN(Cc4ccccc4)CC3)cccc21       melting point         240 to 241 °C

The record that follows has no melting point shown yet.
Given the compound O=S(=O)(C=Cc1ccccc1)n1ncc2c(N3CCN(Cc4ccccc4)CC3)cccc21 , what is its reported melting point?
233 to 235 °C
